target: CD73 (Homo sapiens (Human)); assay type: biochemical; settings: 1 mM NaH2PO4 in enzyme buffer, CD73 0.3 nM, AMP 15 uM
OUTCOME_MEASURE: IC50 (nM)
Answer format: numeric, nM implied, no suffix.

// below: answered compounds
[[record]]
compound = "O=c1[nH]cc(-c2cc(N3CC4(C3)CC4(F)F)c3nccn3n2)c(=O)[nH]1 [Example 406]"
endpoint_result = 25.6

[[record]]
compound = "CCc1cnn2c(N3CC(C)(C)C(F)(F)C3)cc(-c3c[nH]c(=O)[nH]c3=O)nc12 [Example 217]"
endpoint_result = 111

[[record]]
compound = "O=c1[nH]cc(-c2cc(N3CC(F)(F)C3)c3nccn3n2)c(=O)[nH]1 [Example 481]"
endpoint_result = 26.1

[[record]]
compound = "O=c1[nH]cc(-c2cc(OCC(F)(F)C(F)(F)F)c3nccn3n2)c(=O)[nH]1 [Example 690]"
endpoint_result = 12.7

[[record]]
compound = "COC1CN(c2cc(-c3c[nH]c(=O)[nH]c3=O)nn3ccnc23)CC12CC2 (stereo not shown) [Example 349]"
endpoint_result = 148


Query: Would you mind telling me what IC50 value was observed for O=C(c1ccc([C@H]2C[C@@H]2c2cc(-c3c[nH]c(=O)[nH]c3=O)nn3ccnc23)cc1)N1CC(C(F)(F)F)C1 (racemic) [Example 291] ?
Result: 3.25

Query: Would you mind telling me what IC50 value was observed for O=c1[nH]cc(-c2cc(N3C[C@@H](Oc4ccc(C(F)(F)F)cn4)C(F)(F)C3)c3nccn3n2)c(=O)[nH]1 [Example 530] ?
Result: 12.4

----------
target: CD73 (Homo sapiens (Human), UniProt P21589); format: biochemical; details: 1 mM NaH2PO4 in enzyme buffer, CD73 0.3 nM, AMP 15 uM
Sequence (P21589 27-574): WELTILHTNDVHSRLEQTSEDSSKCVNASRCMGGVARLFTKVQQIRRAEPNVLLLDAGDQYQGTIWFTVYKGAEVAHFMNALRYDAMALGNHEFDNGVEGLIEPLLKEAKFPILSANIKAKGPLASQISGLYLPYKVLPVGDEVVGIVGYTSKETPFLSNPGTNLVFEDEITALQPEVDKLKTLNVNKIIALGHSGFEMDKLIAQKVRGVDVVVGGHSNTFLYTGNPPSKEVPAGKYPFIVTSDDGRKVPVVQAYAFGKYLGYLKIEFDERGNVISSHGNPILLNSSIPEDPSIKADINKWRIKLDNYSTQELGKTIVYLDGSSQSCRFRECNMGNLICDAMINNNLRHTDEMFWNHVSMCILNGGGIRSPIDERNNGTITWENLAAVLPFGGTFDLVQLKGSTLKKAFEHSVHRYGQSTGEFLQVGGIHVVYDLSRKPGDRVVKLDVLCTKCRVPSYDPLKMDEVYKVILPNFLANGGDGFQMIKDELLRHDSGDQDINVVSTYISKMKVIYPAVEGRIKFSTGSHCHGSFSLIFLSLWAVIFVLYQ
OUTCOME_MEASURE: IC50 (nM)
Answer format: numeric, nM implied, no suffix.

Query: Would you mind telling me what IC50 value was observed for O=c1[nH]cc(-c2cc([C@H]3C[C@@H]3c3ccc4c(F)nn(CC(F)(F)F)c4c3)c3nccn3n2)c(=O)[nH]1 [Example 393] ?
Result: 0.74

Query: Would you mind telling me what IC50 value was observed for O=c1[nH]cc(-c2cc([C@H]3C[C@@H]3c3cc(-c4ccccc4C(F)(F)F)ccn3)c3nccn3n2)c(=O)[nH]1 (racemic) ?
Result: 2.87

Query: Would you mind telling me what IC50 value was observed for O=c1[nH]cc(-c2cc(N3CCC(c4ccc(C(F)(F)F)cc4)C3)c3ncc(F)n3n2)c(=O)[nH]1 (stereo not drawn) ?
Result: 73.4

Query: Would you mind telling me what IC50 value was observed for O=c1[nH]cc(-c2cc([C@@H]3C[C@H]3c3cnc(C(F)(F)F)nc3)c3ncc(F)n3n2)c(=O)[nH]1 ?
Result: 9.39

----------
biological target: CD73 (Homo sapiens (Human)); assay type: biochemical; details: 1 mM NaH2PO4 in enzyme buffer, CD73 0.3 nM, AMP 15 uM
OUTCOME_MEASURE: IC50 (nM)
Answer format: numeric, nM implied, no suffix.

Query: Would you mind telling me what IC50 value was observed for COC[C@H](C)NC(=O)O[C@H]1CN(c2cc(-c3c[nH]c(=O)[nH]c3=O)nn3ccnc23)CC1(F)F ?
Result: 0.99

Query: Would you mind telling me what IC50 value was observed for O=c1[nH]cc(-c2cc([C@H]3C[C@@H]3c3ccc(C(F)(F)F)cn3)c3ncc(F)n3n2)c(=O)[nH]1 ?
Result: 2.3

Query: Would you mind telling me what IC50 value was observed for O=c1[nH]cc(-c2cc([C@H]3C[C@@H]3c3cc4c(cn3)c(C(F)(F)F)nn4CC(F)(F)F)c3nccn3n2)c(=O)[nH]1 [Example 637] ?
Result: 2.06

----------
Readings of IC50 for the listed molecules
target: UniProt:P21589; format: biochemical; conditions: 1 mM NaH2PO4 in enzyme buffer, CD73 0.3 nM, AMP 15 uM
Answer format: numeric, nM implied, no suffix.

// below: answered molecules
[[record]]
molecule = "O=c1[nH]cc(-c2cc([C@@H]3[C@@H](c4ccc(F)c(F)c4)C3(F)F)c3nccn3n2)c(=O)[nH]1 (racemic)"
endpoint_result = 2.76

[[record]]
molecule = "N#Cc1cccc([C@H]2C[C@@H]2c2cc(-c3c[nH]c(=O)[nH]c3=O)nn3ccnc23)c1F (racemic)"
endpoint_result = 2.35

[[record]]
molecule = "O=c1[nH]cc(-c2cc(N3C[C@H](OC(F)F)C(F)(F)C3)c3nccn3n2)c(=O)[nH]1"
endpoint_result = 1.11


We next turn to a different molecule, shown below.
Query: Would you mind telling me what IC50 value was observed for O=c1[nH]cc(-c2cc([C@H]3C[C@@H]3c3cnn(C(F)F)c3)c3nccn3n2)c(=O)[nH]1 (racemic) ?
Result: 3.73

----------
Readings of pIC50 for the listed molecules
molecular target: CD73 (Homo sapiens (Human), UniProt P21589); assay type: biochemical; conditions: 1 mM NaH2PO4 in enzyme buffer, CD73 0.3 nM, AMP 15 uM
Kindly note that pIC50 refers to -log10 of the concentration in mol/L and answer with the value alone.

// below: answered molecules
[[record]]
molecule = "O=c1[nH]cc(-c2cc(N3CC(C4CC4(F)F)C3)c3nccn3n2)c(=O)[nH]1 (stereo not shown) [Example 400]"
endpoint_result = 6.68

[[record]]
molecule = "O=c1[nH]cc(-c2cc([C@H]3C[C@@H]3c3ccc4cnn(CC(F)(F)F)c4n3)c3ncc(F)n3n2)c(=O)[nH]1 [Example 610]"
endpoint_result = 9.43

[[record]]
molecule = "Cc1cc([C@H]2C[C@@H]2c2cc(-c3c[nH]c(=O)[nH]c3=O)nn3ccnc23)cc2c1cnn2CC(F)(F)F [Example 714]"
endpoint_result = 9.15

[[record]]
molecule = "O=c1[nH]cc(-c2cc([C@H]3C[C@@H]3c3ccc4c(F)nn(CC(F)(F)F)c4c3)c3ncc(Cl)n3n2)c(=O)[nH]1 [Example 721]"
endpoint_result = 9.11

[[record]]
molecule = "O=c1[nH]cc(-c2cc([C@H]3C[C@@H]3c3cc(OCC(F)(F)F)c(Cl)cn3)c3nccn3n2)c(=O)[nH]1 (racemic) [Example 600]"
endpoint_result = 8.59


Query: Would you mind telling me what pIC50 value was observed for O=c1[nH]cc(-c2cc([C@H]3C[C@@H]3c3ccc(OC(F)F)nc3)c3ncc(F)n3n2)c(=O)[nH]1 (racemic) [Example 121] ?
Result: 8.97

Query: Would you mind telling me what pIC50 value was observed for O=c1[nH]cc(-c2cc([C@H]3C[C@@H]3c3ccc(C(F)F)cc3)n3nccc3n2)c(=O)[nH]1 [Example 215] ?
Result: 8.85

----------
target: CD73 (Homo sapiens (Human), UniProt P21589); assay: MDA-MB-231 Cell Based CD73 Activity Assay (DMEM); settings: MDA-MB-231-GFP cells, DMEM medium with 10% human plasma, 200 uM AMP
Readings of EC50 for the listed compounds
Answer format: numeric, nM implied, no suffix.

[[record]]
compound = "O=c1[nH]cc(-c2cc(N3CCC(F)(F)C3)c3ncc(F)n3n2)c(=O)[nH]1"
result_units = "nM"
endpoint_result = 59.5


We next turn to a different compound, shown below.
Query: Would you mind telling me what EC50 value was observed for O=c1[nH]cc(-c2cc([C@H]3C[C@@H]3c3ccc(Cl)cn3)c3ncc(F)n3n2)c(=O)[nH]1 ?
Result: 2.98

----------
molecular target: UniProtKB P21589; experiment: MDA-MB-231 Cell Based CD73 Activity Assay (DMEM); settings: MDA-MB-231-GFP cells, DMEM medium with 10% human plasma, 200 uM AMP
OUTCOME_MEASURE: pEC50
Kindly note that pEC50 refers to -log10 of the concentration in mol/L and answer with the value alone.

// below: answered molecules
[[record]]
molecule = "O=c1[nH]cc(-c2cc(N3C[C@H](Oc4cc(C(F)F)ccn4)C(F)(F)C3)c3nccn3n2)c(=O)[nH]1 [Example 341]"
test_system = "UniProtKB P21589"
endpoint_result = 9.28

[[record]]
molecule = "O=c1[nH]cc(-c2cc([C@H]3C[C@@H]3c3ccc4ccc(=O)n(CC(F)(F)F)c4c3)c3nccn3n2)c(=O)[nH]1 (racemic) [Example 598]"
test_system = "UniProtKB P21589"
endpoint_result = 9.96

[[record]]
molecule = "O=c1[nH]cc(-c2cc(N3C[C@@H](Oc4ccc(OC(F)(F)F)cn4)C(F)(F)C3)c3nccn3n2)c(=O)[nH]1 [Example 334]"
test_system = "UniProtKB P21589"
endpoint_result = 6.93

[[record]]
molecule = "O=c1[nH]cc(-c2cc(N3CC(F)(F)C(F)(F)C3)n3ncnc3n2)c(=O)[nH]1 [Example 356]"
test_system = "UniProtKB P21589"
endpoint_result = 6.04

[[record]]
molecule = "O=C1CCN(c2cc(-c3c[nH]c(=O)[nH]c3=O)nn3ccnc23)N1 [Example 480]"
test_system = "UniProtKB P21589"
endpoint_result = 5.72


Query: Would you mind telling me what pEC50 value was observed for O=c1[nH]cc(-c2cc(N3CC(Oc4ccc(C(F)F)cn4)C(F)(F)C3)c3nccn3n2)c(=O)[nH]1 (centres unmarked) [Example 232] ?
Result: 8.21

Query: Would you mind telling me what pEC50 value was observed for O=c1[nH]cc(-c2cc(N3CC(F)(F)C4(CC4)C3)c3ncc(F)n3n2)c(=O)[nH]1 [Example 82] ?
Result: 7.79

Query: Would you mind telling me what pEC50 value was observed for CC1(C)C(=O)N(CC(F)(F)F)c2cc([C@H]3C[C@@H]3c3cc(-c4c[nH]c(=O)[nH]c4=O)nn4c(F)cnc34)cnc21 [Example 723] ?
Result: 8.98

Query: Would you mind telling me what pEC50 value was observed for O=c1[nH]cc(-c2cc(N3CC(F)(C(F)(F)F)C3)c3ncnn3n2)c(=O)[nH]1 [Example 433] ?
Result: 7.35

Query: Would you mind telling me what pEC50 value was observed for O=C1N(CC(F)(F)F)c2cc([C@H]3C[C@@H]3c3cc(-c4c[nH]c(=O)[nH]c4=O)nn4c(F)cnc34)ccc2C12CC2 [Example 381] ?
Result: 9.80

Query: Would you mind telling me what pEC50 value was observed for O=c1[nH]cc(-c2cc(C3CC3)c3nccn3n2)c(=O)[nH]1 [Example 22] ?
Result: 6.98

Query: Would you mind telling me what pEC50 value was observed for O=c1[nH]cc(-c2cc([C@H]3C[C@@H]3c3ccc4nc(C(F)(F)F)ccc4c3)c3nccn3n2)c(=O)[nH]1 [Example 131] ?
Result: 8.21

Query: Would you mind telling me what pEC50 value was observed for O=c1[nH]cc(-c2cc([C@H]3C[C@@H]3c3ccc(Cl)cn3)c3ncnn3n2)c(=O)[nH]1 [Example 439] ?
Result: 8.58

Query: Would you mind telling me what pEC50 value was observed for O=c1[nH]cc(-c2cc([C@H]3C[C@@H]3c3ccc4ccc(OCC(F)(F)F)nc4c3)c3nccn3n2)c(=O)[nH]1 (racemic) [Example 599] ?
Result: 7.39

The origin of these recorded values is patent US20240043427A1.
